Target desc: delta opioid receptor (Homo sapiens)
Assay protocol: opioid receptor binding assay (Ki), delta
Result type: Ki (nM)

Here are 2 compounds together with their reported answers.
Smiles representation	Ki [nM]
CCCCCCNCc1ccc2c(ccn2Cc2ccc(C(N)=O)cc2)c1	176
CC(C)CCNCc1ccc2c(c1)CCN2Cc1ccc(C(N)=O)cc1	259

A: NC(=O)c1ccc(Cn2ccc3cc(CNCCc4cccs4)ccc32)cc1
B: NC(=O)c1ccc(Cn2ccc3cc(CNCCCc4ccccc4)ccc32)cc1
Ask: Looking at recorded values for Ki, does A or B come in lower? Answer by quoting the chosen item's label.
Result: A
(A: 154 nM, B: 633 nM)

====

Target desc: cloned human delta opioid receptor (Homo sapiens, UniProt P41143)
Construct: expressed in transfected cells
Assay protocol: GTP-γ-S binding assay, antagonist potency (Kb), delta
Assay type: biochemical
Condition details: functional antagonist potency vs DPDPE 30 nM; Cheng-Prusoff
Result type: Kb (nM)

Smiles representation	Kb [nM]
CC(C)(C)CCNCc1ccc2c(ccn2Cc2ccc(C(N)=O)cc2)c1	19.2
CCCCCCNCc1ccc2c(ccn2Cc2ccc(C(N)=O)cc2)c1	27.4
CC(C)(C)CCNCc1ccc2c(c1)CCN2Cc1ccc(C(N)=O)cc1	20.3
CC(C)CCNCc1ccc2c(ccn2Cc2ccc(C(N)=O)cc2)c1	21.7
NC(=O)c1ccc(Cn2ccc3cc(CNCCc4ccccc4F)ccc32)cc1	20.7

====

Target desc: mu opioid receptor (Homo sapiens)
Assay protocol: opioid receptor binding assay (Ki), mu
Result type: Ki (nM)

The examples below pair each entry with its known result.
Smiles representation	Unit of measurement	Ki
NC(=O)c1ccc(Cn2ccc3cc(CNCCc4ccccc4F)ccc32)cc1	nM	20.8
CCCCCCNCc1ccc2c(ccn2Cc2ccc(C(N)=O)cc2)c1	nM	22.1
CC(C)(C)CCNCc1ccc2c(ccn2Cc2ccc(C(N)=O)cc2)c1	nM	15.6

1: NC(=O)c1ccc(Cn2ccc3cc(CNCCc4cccs4)ccc32)cc1
2: NC(=O)c1ccc(Cn2ccc3cc(CNCCCc4ccccc4)ccc32)cc1
Ask: Record comparison, field Ki: mark the lower of 1 and 2 . # respond with the chosen item's label
Result: 1
(1: 21.3 nM, 2: 59.3 nM)

====

Target desc: cloned human kappa opioid receptor (Homo sapiens)
Construct: expressed in transfected cells
Sequence (P41145 whole entry): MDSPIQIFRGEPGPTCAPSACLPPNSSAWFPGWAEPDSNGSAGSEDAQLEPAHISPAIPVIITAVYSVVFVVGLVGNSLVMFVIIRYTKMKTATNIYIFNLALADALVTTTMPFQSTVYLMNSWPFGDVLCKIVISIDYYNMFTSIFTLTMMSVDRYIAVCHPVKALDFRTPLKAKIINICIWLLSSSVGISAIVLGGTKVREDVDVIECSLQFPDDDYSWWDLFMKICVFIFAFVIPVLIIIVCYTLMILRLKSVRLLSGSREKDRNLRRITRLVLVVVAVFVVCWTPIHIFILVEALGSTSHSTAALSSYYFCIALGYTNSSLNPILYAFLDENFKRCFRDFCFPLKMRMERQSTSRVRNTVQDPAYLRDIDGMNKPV
Assay protocol: GTP-γ-S binding assay, antagonist potency (Kb), kappa
Format: biochemical
Condition details: functional antagonist potency vs U69593 300 nM; Cheng-Prusoff
Result type: Kb (nM)

Previously resolved entries follow.
Smiles representation	Unit of measurement	Kb
CC(C)(C)CCNCc1ccc2c(ccn2Cc2ccc(C(N)=O)cc2)c1	nM	50.5
NC(=O)c1ccc(Cn2ccc3cc(CNCCc4cccs4)ccc32)cc1	nM	50.1

A: CC(C)CCNCc1ccc2c(ccn2Cc2ccc(C(N)=O)cc2)c1
B: CC(C)(C)CCNCc1ccc2c(c1)CCN2Cc1ccc(C(N)=O)cc1
Ask: Lab log: flag the item ( A or B ) with the smaller Kb figure. # reply format: chosen label
Result: B
(B: 21.4 nM, A: 59.9 nM)

====

Target desc: cloned human mu opioid receptor (Homo sapiens)
Construct: expressed in transfected cells
Sequence (P35372 whole entry): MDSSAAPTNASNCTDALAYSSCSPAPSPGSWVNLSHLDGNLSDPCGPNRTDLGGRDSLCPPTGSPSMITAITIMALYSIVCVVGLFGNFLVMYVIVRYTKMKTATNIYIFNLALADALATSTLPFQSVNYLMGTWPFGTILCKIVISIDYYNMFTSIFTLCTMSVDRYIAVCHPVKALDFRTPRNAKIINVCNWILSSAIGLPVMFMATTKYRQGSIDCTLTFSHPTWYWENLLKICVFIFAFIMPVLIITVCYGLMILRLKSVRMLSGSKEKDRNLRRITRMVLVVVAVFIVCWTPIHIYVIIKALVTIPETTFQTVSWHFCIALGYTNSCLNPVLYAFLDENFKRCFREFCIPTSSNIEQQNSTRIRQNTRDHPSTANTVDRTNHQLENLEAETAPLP
Assay protocol: GTP-γ-S binding assay, antagonist potency (Kb), mu
Type: biochemical
Condition details: functional antagonist potency vs DAMGO 1 micromolar; Cheng-Prusoff
Description: The functional antagonist potency (Kb) of the sample compounds was determined using the GTPγS binding assay. GTPgS-based functional assays provide an in vitro measure of the activity of opioid agonists and antagonists. Opioid reference compounds or test compound are incubated with membrane homogenate from cells expressing the cloned human mu, kappa or delta opioid receptor and radiolabeled [35S]GTPgS. […]
Result type: Kb (nM)

Look over these answered cases.
Smiles representation	Target desc	Kb / nM
CC(C)CCNCc1ccc2c(c1)CCN2Cc1ccc(C(N)=O)cc1	cloned human mu opioid receptor (Homo sapiens)	3.3
NC(=O)c1ccc(Cn2ccc3cc(CNCCc4cccs4)ccc32)cc1	cloned human mu opioid receptor (Homo sapiens)	2

I: NC(=O)c1ccc(CN2CCc3cc(CNCCc4cccs4)ccc32)cc1
II: CC(C)CCNCc1ccc2c(ccn2Cc2ccc(C(N)=O)cc2)c1
Ask: For I and II , which recorded Kb is lower? Refer to your chosen entry by its label in the reply.
Result: I
(I: 2.1 nM, II: 4.2 nM)

====

Target desc: delta opioid receptor (Homo sapiens, UniProt P41143)
Sequence (P41143 whole entry): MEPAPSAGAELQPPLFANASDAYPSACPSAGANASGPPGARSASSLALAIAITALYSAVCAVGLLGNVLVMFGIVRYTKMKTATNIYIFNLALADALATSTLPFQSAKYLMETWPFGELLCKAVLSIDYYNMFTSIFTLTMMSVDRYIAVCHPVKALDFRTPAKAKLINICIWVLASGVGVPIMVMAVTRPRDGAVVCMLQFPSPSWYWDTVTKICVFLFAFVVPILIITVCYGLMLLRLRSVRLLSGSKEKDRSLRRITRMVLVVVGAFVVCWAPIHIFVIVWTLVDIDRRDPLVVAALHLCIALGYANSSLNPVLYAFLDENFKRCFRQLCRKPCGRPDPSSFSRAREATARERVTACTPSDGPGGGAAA
Assay protocol: opioid receptor binding assay (Ki), delta
Result type: Ki (nM)

Example entries and their recorded answers appear below.
Molecule	Target desc	Observed result
CC(C)(C)CCNCc1ccc2c(c1)CCN2Cc1ccc(C(N)=O)cc1 [Example 6]	delta opioid receptor (Homo sapiens, UniProt P41143)	193
CC(C)(C)CCNCc1ccc2c(ccn2Cc2ccc(C(N)=O)cc2)c1 [Example 3]	delta opioid receptor (Homo sapiens, UniProt P41143)	98.2
NC(=O)c1ccc(Cn2ccc3cc(CNCCc4ccccc4F)ccc32)cc1 [Example 9]	delta opioid receptor (Homo sapiens, UniProt P41143)	144
COc1ccc(CCNCc2ccc3c(ccn3Cc3ccc(C(N)=O)cc3)c2)cc1 [Example 11]	delta opioid receptor (Homo sapiens, UniProt P41143)	2550

1: CC(C)CCNCc1ccc2c(ccn2Cc2ccc(C(N)=O)cc2)c1 [Example 1]
2: NC(=O)c1ccc(CN2CCc3cc(CNCCc4cccs4)ccc32)cc1 [Example 4]
Ask: Select the item with the higher value of Ki from the options 1 and 2 listed. Answer by stating the label of the chosen item.
Result: 1
(1: 170 nM, 2: 111 nM)

====

Target desc: cloned human kappa opioid receptor (Homo sapiens)
Construct: expressed in transfected cells
Assay protocol: GTP-γ-S binding assay, antagonist potency (Kb), kappa
Assay type: biochemical
Condition details: functional antagonist potency vs U69593 300 nM; Cheng-Prusoff
A collection of molecules and their measured Kb

The recorded Kb for entry CCCCCCNCc1ccc2c(ccn2Cc2ccc(C(N)=O)cc2)c1 equals > 35 nM

Value of measured Kb for the entry NC(=O)c1ccc(Cn2ccc3cc(CNCCc4ccccc4F)ccc32)cc1 : > 35 nM

Entry COc1ccc(CCNCc2ccc3c(ccn3Cc3ccc(C(N)=O)cc3)c2)cc1 , Kb reported as > 42 nM

Lab book: Kb of NC(=O)c1ccc(CN2CCc3cc(CNCCc4cccs4)ccc32)cc1 noted as > 42 nM

// CC(C)CCNCc1ccc2c(c1)CCN2Cc1ccc(C(N)=O)cc1 : Kb value = > 42 nM
